target: falcipain-2 (Plasmodium falciparum, UniProt Q8I6U4); construct: made in house; host or cells: E. coli; test: Inhibition of recombinant falcipain-2, fluorometric microplate assay (Cbz-Phe-Arg-AMC); type: biochemical; details: recombinant falcipain-2; values marked ^a: only one experiment; ni = no inhibition; read-out: FP-2 IC50
Define the label as Satisfied when IC50 is strictly less than 80 µM and as Not satisfied in all remaining cases.

- C=C(CC)C(=O)c1ccc(OCC(=O)OCC)c(Cl)c1Cl: Satisfied
- CC(C)C[C@H](NC(=O)[C@H]1O[C@@H]1C(=O)O)C(=O)NCCCCN=C(N)N [E-64, reference compound]: Satisfied
- C=C(CC)C(=O)c1ccc(Cl)cc1OCC(=O)OCC: Not satisfied
- C=C(CC)C(=O)c1ccc(OCC(=O)N2CCOCC2)c(Cl)c1Cl: Not satisfied
- C=C(CC)C(=O)c1ccc(OCC(=O)NCCCC)c(Cl)c1Cl: Not satisfied
- C=C(CC)C(=O)c1ccc(OCC(=O)NC(C)(C)C(N)=O)c(Cl)c1Cl: Not satisfied
- C=C(CC)C(=O)c1ccc(OCC(=O)OCC)c(Cl)c1: Not satisfied
- CCCC(=O)c1ccc(OCC(=O)NC(C)(C)C)c(Cl)c1Cl: Not satisfied

* * *

Molecular target: falcipain-2 (Plasmodium falciparum, UniProt Q8I6U4)
Construct: made in house; host or cells: E. coli
Sequence (Q8I6U4 244-484): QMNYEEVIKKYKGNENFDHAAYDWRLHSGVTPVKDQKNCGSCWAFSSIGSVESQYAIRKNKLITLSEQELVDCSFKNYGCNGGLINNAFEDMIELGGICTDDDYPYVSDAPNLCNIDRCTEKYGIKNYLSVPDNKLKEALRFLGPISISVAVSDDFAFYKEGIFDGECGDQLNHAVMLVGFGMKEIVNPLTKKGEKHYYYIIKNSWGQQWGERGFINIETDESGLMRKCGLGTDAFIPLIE
Assay: Inhibition of recombinant falcipain-2, fluorometric microplate assay (Cbz-Phe-Arg-AMC)
Type: biochemical
Settings: recombinant falcipain-2; values marked ^a: only one experiment; ni = no inhibition; read-out: FP-2 IC50
Description: Recombinant falcipain-2 and falcipain-3 were produced as previously described. Inhibitory activities against recombinant falcipain-2 and falcipain-3 were evaluated in fluorometric microplate assays using the substrates Cbz-Phe-Arg-AMC and Cbz-Leu-Arg-AMC (AMC, 7-amino-4-methyl-coumarin). […] IC50 values for inhibition of falcipain-2 and falcipain-3 were determined as described previously using the fluorogenic substrates Cbz-Phe-Arg-AMC and Cbz-Leu-Arg-AMC, respectively (AMC, 7-amino-4 methylcoumarin). […]
pIC50: −log10 of the molar value.
Property: pIC50; scope: individual compounds
measure: pIC50

- CCCC(=O)c1ccc(OCC(=O)NC(C)(C)C)c(F)c1: 4.10
- CCCC(=O)c1ccc(OCC(=O)OC(C)(C)C)c(F)c1: 4.10
- C=C(CC)C(=O)c1ccc(OCC(=O)NC(C)(C)C)c(F)c1: 4.10
